These measurements were taken from PubChem BioAssay (NCATS).

- assay-procedure: P-glycoprotein substrates identified in KB-8-5-11 adenocarcinoma cell line, qHTS therapeutic library screen (AID 1346987); also: nearly all actives have a fitted effect of over 65% in size; as to activity change, negative = cytotoxicity: % is scaled to controls: 0 for no effect and ±100 for the full control effect
- test-settings: KB-8-5-11 (P-gp overexpressing) viability, CellTiter-Glo, 72 h; series mostly up to 44.5 µM
Inconclusive results are not listed. Activity calls are given as the source filed them. Calls follow the shape of the dose curve; as a rule, active = well fitted inhibition curve with a large enough effect; inconclusive = small, poorly fitted or top-dose-only effect; inactive = flat fitted curve, though single readings scatter.
recorded-metric: activity change, negative = cytotoxicity

INSERT INTO measurements (molecule, readout_value) VALUES
  ('CC(=C/C(=O)O)/C=C/[C@]1(O)[C@@]2(C)CO[C@]1(C)C[C@H](O[C@@H]1O[C@H](CO)[C@@H](O)[C@H](O)[C@H]1O)C2', 'inactive'),
  ('C=CC1C(O[C@@H]2O[C@H](CO)[C@@H](O)[C@H](O)[C@H]2O)OC=C(C(=O)OC)C1Cc1nccc2c1[nH]c1ccccc12 (stereo partly specified)', 'inactive'),
  ('CC(C)NC[C@H](O)COc1ccc(CCOCC2CC2)cc1', 'inactive'),
  ('CC(C)=CC/C=C(/C)[C@H]1CC[C@]2(C)[C@@H]1[C@H](O)CC1[C@@]3(C)CC[C@H](O)C(C)(C)[C@@H]3[C@@H](O[C@@H]3O[C@H](CO)[C@@H](O)[C@H](O)[C@H]3O[C@@H]3O[C@@H](C)[C@H](O)[C@@H](O)[C@H]3O)C[C@]12C (stereo partly specified)', 'inactive'),
  ('CC(C)=CCc1ccc(Oc2c(O)cc(C)cc2CO)c(C(=O)O)c1O', 'inactive'),
  ('CC(=O)OC[C@]1(O)[C@H]2[C@H](OC(=O)CC(C)C)OC=C(CO[C@@H]3O[C@H](CO)[C@@H](O)[C@H](O)[C@H]3O)[C@H]2C[C@@H]1O', 'inactive'),
  ('CC(C)C(=O)c1cn(CC(=O)COc2ccc(Oc3ccccc3)cc2)c2ccc(C(=O)O)cc12', 'inactive'),
  ('O=C(O)C[C@@H](NC(=O)c1cc(-c2ccc(-c3ccncc3)cc2)cs1)c1ccccc1', 'inactive'),
  ('COc1ccc(C(O[C@@H]2O[C@H](CO)[C@@H](O)[C@H](O)[C@H]2O)C(CO)Oc2ccc(/C=C/CO)cc2OC)cc1O (stereo partly specified)', 'inactive'),
  ('C=C1CC[C@H]2[C@@H](/C=C(\C)C(=O)[C@@]3(OC(C)=O)C[C@H](C)[C@H](OC(C)=O)[C@@H]3[C@H]1OC(C)=O)C2(C)C', 'inactive'),
  ('O=c1c2ccccc2nc2n1CCC2O (stereo unspecified)', 'inactive'),
  ('COc1ccccc1-n1c(SCC(=O)Nc2nc3ccc(C)cc3s2)nc2c(c1=O)SCC2', 'inactive'),
  ('COc1ccc2c(c1O)OC[C@H]1c3ccc(O)cc3O[C@@H]21', 'inactive'),
  ('CCC(=O)OCC(=O)[C@@]1(OC(=O)CC)[C@H](C)C[C@H]2[C@H]3[C@H]([C@@H](O)C[C@@]21C)[C@@]1(C)C=CC(=O)C=C1C[C@H]3Cl', 'inactive'),
  ('CC(/C=C/C1(O)C(C)(C)CC(O)CC1(C)O)OC1OC(CO)C(O)C(O)C1O (stereo unspecified)', 'inactive'),
  ('O=C(O)c1cnn(-c2nc3cc(OC(F)(F)F)c(Cl)cc3[nH]2)c1', 'inactive');

###

- assay-procedure: qHTS assay for small molecule activators of the p53 signaling pathway (AID 651743); also: % of control where 0% means no effect
- test-settings: HCT-116 p53RE-bla, beta-lactamase FRET ratio, 16 h; active compounds read high
- Text: National Center for Advancing Translational Sciences [NCATS] NIH Chemical Genomics Center [NCGC] U.S. Environmental Protection Agency [EPA] National Institutes of Environmental Health Sciences [NIEHS] National Toxicology Program [NTP] Assay Overview: p53, a tumor suppressor protein, is activated following cellular insult, including DNA damage and other cellular stresses. […] The activation of the report gene under culture conditions can be detected by fluorescence intensity. […]
Results filed as inconclusive are left out.
Recorded activation values for a group of compounds are listed next.
recorded-metric: activation (%)

INSERT INTO assay_data (compound, recorded_metric, unit_of_measure, readout_value) VALUES
  ('CCCCC(CC)COC(=O)CC(C(=O)OCC(CC)CCCC)S(=O)(=O)O (configuration not stated)', 'activation', '%', 1.7),
  ('Nc1ccn([C@H]2CS[C@@H](CO)O2)c(=O)n1', 'activation', '%', -1.09),
  ('CC1=C2[C@@H]([C@H](C)CC[C@H]2/C=C(\C)C(=O)O)[C@H](O)C1', 'activation', '%', -3.64),
  ('CCOC(C)=O', 'activation', '%', -1.83),
  ('CC1=CCC(C(C)(C)O)CC1 (configuration not stated)', 'activation', '%', -5.6),
  ('C[C@H]1C[C@H]2[C@@H]3CCC4=CC(=O)C=C[C@]4(C)[C@@]3(F)[C@@H](O)C[C@]2(C)[C@@]1(O)C(=O)CO', 'activation', '%', -9.59),
  ('O=C(O)CCC(=O)C(=O)O', 'activation', '%', -2.86);
